Numbers sourced from PubChem BioAssay AID1159580.

- method.summary: chemical genetic growth profiling, strain panel (AID 1159580);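 also: tested at 20 µM; growth read once vehicle control cultures reached saturation at 30 °C; 1 = growth at the plate median or of vehicle wells; lower values mean less growth of the strain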
- setup.conditions: S. cerevisiae deletion strains, growth OD, locus YMR263W, strain SAP30, hits give low values
Hit rate of the full screen: of about 5,500 compounds, about 2,000 (36%) were called active. About 18% were inconclusive and are not listed. The list shows a part of the results.
# normalized growth values compiled below
Number only, no unit.

# molecule N#Cc1c(F)cccc1Oc1ccc(F)cc1 ; its normalized growth = 0.998

The reported value for CC(=O)OCC(COC(C)=O)OC(C)=O in terms of normalized growth is 1.02

The reported value for C#CCCCCCCCCCCCC(O)CC(O)COC(C)=O (stereo unspecified) in terms of normalized growth is 0.966

Record CC1(C)O[C@@H]2CC3C4CCC5=CC(=O)CCC5(C)C4(F)C(O)CC3(C)[C@]2(C(=O)CCl)O1 (stereo partly specified) , field normalized growth: 1

Given item C#CCCCCCCCCCCCC(=O)CC(O)COC(C)=O (stereo unspecified) , the value recorded as its normalized growth is 0.848

Documented normalized growth of COC(=O)C1=CCCN(C)C1 : 0.984
